Where these numbers come from: paper PMC12064818

Catalogue of compounds with associated IC50
- Study Target: FLuc-C-HiBiT (Photinus pyralis)
- Construct: firefly luciferase with C-terminal HiBiT tag, E. coli expressed
- Sequence (P08659 whole entry, looked up): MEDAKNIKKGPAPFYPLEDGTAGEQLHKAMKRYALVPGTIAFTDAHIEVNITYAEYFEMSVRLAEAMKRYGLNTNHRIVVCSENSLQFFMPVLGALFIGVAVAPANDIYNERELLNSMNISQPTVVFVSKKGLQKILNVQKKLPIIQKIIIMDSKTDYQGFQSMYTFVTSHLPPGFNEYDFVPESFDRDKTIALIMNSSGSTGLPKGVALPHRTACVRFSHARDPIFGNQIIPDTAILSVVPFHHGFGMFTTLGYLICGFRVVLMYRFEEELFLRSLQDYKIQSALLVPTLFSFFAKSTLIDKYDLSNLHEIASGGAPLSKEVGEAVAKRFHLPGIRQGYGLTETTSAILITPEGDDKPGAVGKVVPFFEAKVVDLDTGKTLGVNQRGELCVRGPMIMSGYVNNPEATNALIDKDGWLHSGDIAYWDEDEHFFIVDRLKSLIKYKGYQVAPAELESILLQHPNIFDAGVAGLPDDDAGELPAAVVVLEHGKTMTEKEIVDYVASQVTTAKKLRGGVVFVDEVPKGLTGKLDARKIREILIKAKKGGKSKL
- Protocol Summary: biochemical
- Experimental Parameters: enzyme activity, 10 uM ATP; read-out: IC50 or SDR50 (mM) / FLuc E

The examples below pair each entry with its known result.
Input: # input compound: "Cc1cccc(OCC(=O)Nc2cccc(-c3nc4ccccc4s3)c2)c1" ; wanted: its IC50
Output: 0.00624 mM

Input: Query CC(Oc1ccccc1F)C(=O)Nc1ccc(-c2nc3ccccc3s2)cc1 (stereo not shown) next
Output: 0.00881 mM

Input: Query CCOC(=O)C1(C)C=C(Nc2cccc(C(=O)O)c2)C(=O)N1c1ccccc1 (stereo not shown) next
Output: 0.0124 mM

Now consider a different compound.
Input: # input compound: COc1ccccc1OC(C)C(=O)Nc1ccc(-c2nc3ccccc3s2)cc1 (stereo not shown) ; wanted: its IC50
Output: > 0.03 mM

---

- Study Target: FLuc-C-HiBiT (Photinus pyralis)
- Construct: firefly luciferase with C-terminal HiBiT tag, E. coli expressed
- Protocol Summary: biochemical
- Experimental Parameters: enzyme activity, 10 uM ATP; read-out: IC50 or SDR50 (mM) / FLuc E
Criterion: IC50 strictly less than 10 µM. Met: condition met. Not met: condition not met.

Input: Say whether its IC50 is strictly beneath 10 µM. Entry: "COc1ccccc1OC1(C(=O)O)CCN(c2ncnc3[nH]cnc23)CC1"
Output: condition not met

Input: Query "Cc1ccc(-n2nc(C)c([C@H]3C=C[C@@H](OC(=O)Nc4cccc(C(F)(F)F)c4)C3)c2C)cc1Cl" next
Output: condition not met

Input: Query "COc1cccc(-c2ncc3c(n2)OCCN(c2ccccc2)C3=O)c1" next
Output: condition met

Input: Query "Cc1ccc(CN2CCc3nc(C(=O)Nc4ccccc4)oc3CC2)cc1" next
Output: condition not met

Input: Query "Cc1ccc(C2=Nc3cc(Cl)ccc3NC(c3ccccc3)=N2)cc1" next
Output: condition not met

Input: Query "CC(=O)NC1(C)CN(Cc2ccc(-c3ccc4c(ccn4C)c3)s2)C1" next
Output: condition met

Then there is this molecule:
Input: Say whether its IC50 is strictly beneath 10 µM. Entry: "COc1ccc(Br)cc1C(=O)Nc1nc2ccc(F)cc2s1"
Output: condition not met

---

- Study Target: FLuc-N-HiBiT (firefly luciferase) (Photinus pyralis, UniProt P08659, form not given/L550V)
- Sequence (P08659 2-550 L550V, form open): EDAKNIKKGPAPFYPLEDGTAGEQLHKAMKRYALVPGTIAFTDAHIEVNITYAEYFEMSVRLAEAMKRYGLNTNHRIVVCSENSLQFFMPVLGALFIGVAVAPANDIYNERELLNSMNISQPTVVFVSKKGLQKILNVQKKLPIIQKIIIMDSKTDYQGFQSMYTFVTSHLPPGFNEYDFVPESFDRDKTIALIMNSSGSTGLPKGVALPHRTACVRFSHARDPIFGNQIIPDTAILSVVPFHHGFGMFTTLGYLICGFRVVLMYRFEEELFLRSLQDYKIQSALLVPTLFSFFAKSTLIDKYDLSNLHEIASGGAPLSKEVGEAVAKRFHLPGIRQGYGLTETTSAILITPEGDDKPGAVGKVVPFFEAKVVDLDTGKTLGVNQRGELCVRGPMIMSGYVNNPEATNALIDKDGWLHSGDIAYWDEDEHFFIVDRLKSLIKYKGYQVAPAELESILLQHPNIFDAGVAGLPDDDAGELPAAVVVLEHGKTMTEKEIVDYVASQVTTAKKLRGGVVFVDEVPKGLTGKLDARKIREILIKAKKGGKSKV
- Protocol Summary: SDR assay, FLuc-N-HiBiT
- Experimental Parameters: substituted indoline (clade A'); - ATP
Readout: pSDR50 (clade A')
Respond using a number only.

Input: Given the entry CCCCNC(=O)c1cccc2c1CCN2C(=O)Nc1ccccc1 [NCGC00430146-01] , what pSDR50 (clade A') was observed with FLuc-N-HiBiT (firefly luciferase) (Photinus pyralis, UniProt P08659, form not given/L550V)?
Output: 5.51

Input: Query O=C(O)c1cccc2c1CCN2C(=O)c1ccc(F)cc1 [NCGC00432675-01] next
Output: 4.16

Input: Query COc1ccc(NC(=O)N2CCc3c(C(=O)NCCN4CCCCCC4)cccc32)cc1 [NCGC00430136-01] next
Output: 3.93

Continuing:
Input: Given the entry COc1ccc(NC(=O)N2CCc3c(C(=O)NCCCN4CCCC4=O)cccc32)cc1 [NCGC00430130-01] , what pSDR50 (clade A') was observed with FLuc-N-HiBiT (firefly luciferase) (Photinus pyralis, UniProt P08659, form not given/L550V)?
Output: 4.44

Input: Query Cc1cccc(NC(=O)N2CCc3c(C(=O)NC(C)(C)C)cccc32)c1 [NCGC00430124-01] next
Output: 4.31

Input: Query CC(NC(=O)c1cccc2c1CCN2C(=O)Nc1ccccc1)c1cccnc1 (stereo not shown) [NCGC00430104-01] next
Output: 4.71

Input: Query CCCNC(=O)c1cccc2c1CCN2C(=O)Nc1cccc(C)c1 [NCGC00430116-01] next
Output: 3.57

Input: Query Cc1cccc(NC(=O)N2CCc3c(C(=O)N4CCN(C)CC4)cccc32)c1 [NCGC00430118-01] next
Output: 3.92

Input: Query Cc1ccc(NC(=O)N2CCc3c(C(=O)NCCc4ccccn4)cccc32)cc1 [NCGC00430168-01] next
Output: 4.36

Input: Query COc1ccc(NC(=O)N2CCc3c(C(=O)NCc4ccncc4)cccc32)cc1 [NCGC00430180-01] next
Output: 4.73
